Reported GI50 values follow for various compounds
system: COLO 205; assay: NCI tumour cell line growth inhibition, 48 h
Calls of active or inactive are those of the source. Rule as the data show it: active = GI50 up to about 1.1 µM and inactive = higher.

Consider the worked cases shown below.
compound="O=C(O)CC1CC=C[C@H]2c3cc4c(cc3C(=O)NC12)OCO4 (stereo partly drawn)" result_type=GI50 result_value="> 75 µM (inactive)"
compound=N/C(S)=N/N=C/c1ncccc1O result_type=GI50 result_value="2.83 µM (inactive)"

Kindly consider the entry below.
What does the record list as GI50 for c1cncc(CSc2ncnc3[nH]cnc23)c1 ? > 100 µM (inactive)

###

system: LOX IMVI; assay: NCI tumour cell line growth inhibition, 48 h
The source made the active and inactive calls. Rule as the data show it: active = GI50 up to about 1.1 µM and inactive = higher.
result-type: GI50

Consider the worked cases shown below.
structure_smiles=CCOC(=O)Cn1c(=O)[nH]c(=O)c2[nH]cnc21 target_of_assay="LOX IMVI" result_value="> 100 µM (inactive)"
structure_smiles=Cc1[nH]c2ccccc2c1-c1cc(-c2cc(-c3c(C)[nH]c4ccccc34)nc(N)n2)nc(N)n1 target_of_assay="LOX IMVI" result_value="> 100 µM (inactive)"
structure_smiles=C1CSCCSCCS1 target_of_assay="LOX IMVI" result_value="> 100 µM (inactive)"

What does the record list as GI50 for Cc1nn2c(C(=O)N/N=C/c3ccccc3O)c(C)nc2s1 ? > 100 µM (inactive)

What does the record list as GI50 for COc1cc(NCc2ccc3nc(-c4ccccc4)c(N)nc3c2)cc(OC)c1OC ? 41.9 µM (inactive)

What does the record list as GI50 for COc1ccc2c(C)cc(=O)oc2c1OC ? > 100 µM (inactive)

What does the record list as GI50 for CNc1ccc([N+](=O)[O-])c2c(NCCCN(C)C)ccnc12 ? > 100 µM (inactive)

What does the record list as GI50 for COc1cccc2c(=O)c3c(O)c4cc(N(C)C)ccc4c(OC(C)=O)c3oc12 ? 12 µM (inactive)

What does the record list as GI50 for COc1cc2c(oc(=O)c3c4oc([Si](C)(C)C)cc4cc(OC)c23)c2cccc(OCc3ccccc3)c12 ? 44 µM (inactive)
